# Test System: human Nav1.7 (Homo sapiens (Human))
# Sequence (Q15858 other isoform, or with tags, fused parts or gaps): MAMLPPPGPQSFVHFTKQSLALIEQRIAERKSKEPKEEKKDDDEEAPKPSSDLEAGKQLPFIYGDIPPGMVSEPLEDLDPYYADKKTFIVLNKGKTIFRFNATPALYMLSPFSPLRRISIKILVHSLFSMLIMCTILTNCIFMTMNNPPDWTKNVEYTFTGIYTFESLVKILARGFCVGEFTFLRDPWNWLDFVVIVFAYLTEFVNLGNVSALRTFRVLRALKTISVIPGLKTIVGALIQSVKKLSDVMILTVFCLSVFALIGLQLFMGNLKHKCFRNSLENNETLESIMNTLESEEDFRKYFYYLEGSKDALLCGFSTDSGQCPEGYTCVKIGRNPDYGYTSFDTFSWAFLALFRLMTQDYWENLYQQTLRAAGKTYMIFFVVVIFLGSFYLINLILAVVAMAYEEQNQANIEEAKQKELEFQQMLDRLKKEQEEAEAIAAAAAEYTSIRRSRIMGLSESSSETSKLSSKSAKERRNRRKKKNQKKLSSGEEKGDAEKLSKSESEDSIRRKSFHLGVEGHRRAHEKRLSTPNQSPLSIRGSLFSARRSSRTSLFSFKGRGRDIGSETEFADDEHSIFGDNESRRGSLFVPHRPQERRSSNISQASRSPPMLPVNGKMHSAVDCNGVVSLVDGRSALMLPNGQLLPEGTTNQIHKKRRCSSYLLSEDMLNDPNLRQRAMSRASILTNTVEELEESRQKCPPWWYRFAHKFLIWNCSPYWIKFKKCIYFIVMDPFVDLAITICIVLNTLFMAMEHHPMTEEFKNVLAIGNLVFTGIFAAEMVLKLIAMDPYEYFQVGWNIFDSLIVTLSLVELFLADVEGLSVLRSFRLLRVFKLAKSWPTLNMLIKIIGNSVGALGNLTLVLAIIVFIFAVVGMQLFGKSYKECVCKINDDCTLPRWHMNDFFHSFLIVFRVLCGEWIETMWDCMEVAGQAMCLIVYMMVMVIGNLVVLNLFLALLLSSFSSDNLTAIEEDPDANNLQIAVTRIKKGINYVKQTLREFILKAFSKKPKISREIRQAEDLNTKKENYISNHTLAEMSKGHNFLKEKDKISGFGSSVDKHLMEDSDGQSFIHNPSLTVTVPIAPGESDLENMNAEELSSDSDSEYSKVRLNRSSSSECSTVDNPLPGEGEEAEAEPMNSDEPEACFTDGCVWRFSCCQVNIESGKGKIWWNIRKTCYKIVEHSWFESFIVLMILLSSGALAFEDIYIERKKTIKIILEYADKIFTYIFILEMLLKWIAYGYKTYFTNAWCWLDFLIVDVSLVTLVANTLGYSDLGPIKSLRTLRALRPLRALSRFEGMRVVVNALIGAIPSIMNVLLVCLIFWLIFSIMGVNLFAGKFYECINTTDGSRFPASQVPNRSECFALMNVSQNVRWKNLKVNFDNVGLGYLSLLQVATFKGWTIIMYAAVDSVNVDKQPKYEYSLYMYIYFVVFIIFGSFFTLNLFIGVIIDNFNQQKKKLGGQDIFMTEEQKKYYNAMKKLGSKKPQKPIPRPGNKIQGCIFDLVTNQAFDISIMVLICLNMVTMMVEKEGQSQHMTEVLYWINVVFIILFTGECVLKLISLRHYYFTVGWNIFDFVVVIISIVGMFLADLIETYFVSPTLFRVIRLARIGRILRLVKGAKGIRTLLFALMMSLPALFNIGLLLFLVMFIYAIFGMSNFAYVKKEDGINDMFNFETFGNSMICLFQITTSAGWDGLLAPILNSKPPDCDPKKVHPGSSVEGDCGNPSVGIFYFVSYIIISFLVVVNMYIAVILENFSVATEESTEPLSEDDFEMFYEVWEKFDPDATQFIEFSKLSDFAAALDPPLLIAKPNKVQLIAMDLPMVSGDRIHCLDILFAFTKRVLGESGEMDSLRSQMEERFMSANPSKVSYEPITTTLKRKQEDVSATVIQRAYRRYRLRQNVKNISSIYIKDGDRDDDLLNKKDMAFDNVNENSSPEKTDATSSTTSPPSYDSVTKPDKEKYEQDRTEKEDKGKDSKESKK
# Procedure Text: FLIPR sodium dye assay for sodium channel blocking activity (recombinant Nav1.7/HEK293 cells)
# Assay type: cell-based
# Measurement Parameters: recombinant human Nav1.7 in HEK293
Task for the reader: assign each of the following molecules its reported IC50.
Dear colleague, please return just the value in nM, with no unit written.

Ask: Give its IC50 value. Item: "C[C@H](Oc1cc(C(N)=O)nc(-c2ccc(Oc3ccc(Cl)cc3F)cc2)n1)C(N)=O"
Result: 83

Ask: And for "C[C@H](Oc1cc(C(N)=O)nc(-c2ccc(Oc3cc(Cl)ccc3F)cc2)n1)C(N)=O" ?
Result: 270

Ask: For "C[C@H](Nc1cc(C(N)=O)nc(-c2ccc(Oc3cc(C(F)(F)F)ccn3)cc2)n1)C(N)=O" then?
Result: 3250
